Reported Efficacy (GABA) % values for a set of compounds
TARGET_OR_TEST_SYSTEM: h-GABA-A α2β2γ1 (Homo sapiens (Human), UniProt P47869+Q8N1C3)
MEASUREMENT_DESCRIPTION: Two-electrode voltage clamp electrophysiology in Xenopus oocytes expressing GABAA receptors
Type: cell-based
RUN_PARAMETERS: % modulation of GABA EC20 = 100*(Fold increase−1), compound at about 30-fold its Ki α2β2γ1
TEST_READOUT: Efficacy (GABA) % (%)

[[record]]
compound = "Cc1nnc2n1-c1sc3c(c1C(c1c(F)cccc1Cl)=N[C@H]2C)COCCO3"
test_readout = "Efficacy (GABA) %"
output_unit = "%"
experimental_result = 61

[[record]]
compound = "CC(C)c1nnc2n1-c1sc3c(c1C(c1c(F)cccc1F)=N[C@H]2C)COCCO3"
test_readout = "Efficacy (GABA) %"
output_unit = "%"
experimental_result = 116

[[record]]
compound = "Cc1nnc2n1-c1sc3c(c1C(c1c(F)cccc1F)=NC2)CCCCO3"
test_readout = "Efficacy (GABA) %"
output_unit = "%"
experimental_result = 113

[[record]]
compound = "Cc1nnc2n1-c1sc3c(c1C(c1c(F)cccc1F)=N[C@H]2C)CCCCO3"
test_readout = "Efficacy (GABA) %"
output_unit = "%"
experimental_result = 122

[[record]]
compound = "Cc1cn2c(nc1=O)[C@H](C)N=C(c1c(F)cccc1F)c1c-2sc2c1CCCCC2"
test_readout = "Efficacy (GABA) %"
output_unit = "%"
experimental_result = 109

[[record]]
compound = "Cc1nnc2n1-c1sc3c(c1C(c1c(F)cccc1F)=N[C@H]2C)COCCO3"
test_readout = "Efficacy (GABA) %"
output_unit = "%"
experimental_result = 140

[[record]]
compound = "Cc1nnc2n1-c1sc3c(c1C(c1c(F)cccc1F)=N[C@H]2C)CC[C@@H](O)CC3"
test_readout = "Efficacy (GABA) %"
output_unit = "%"
experimental_result = 77

[[record]]
compound = "C[C@@H]1N=C(c2c(F)cccc2F)c2c(sc3c2COCCO3)-n2nc(C(=O)N3CCC3)nc21"
test_readout = "Efficacy (GABA) %"
output_unit = "%"
experimental_result = 88

[[record]]
compound = "C[C@@H]1N=C(c2c(F)cccc2F)c2c(sc3c2COCCO3)-n2c(C3CC3)nnc21"
test_readout = "Efficacy (GABA) %"
output_unit = "%"
experimental_result = 94

[[record]]
compound = "Cc1nnc2n1-c1sc3c(c1C(c1c(F)cccc1F)=N[C@H]2C)CCCCC3"
test_readout = "Efficacy (GABA) %"
output_unit = "%"
experimental_result = 66

[[record]]
compound = "Cc1nnc2n1-c1sc3c(c1C(c1c(F)cccc1F)=N[C@H]2C)COC[C@H](C)O3"
test_readout = "Efficacy (GABA) %"
output_unit = "%"
experimental_result = 150

[[record]]
compound = "C[C@@H]1N=C(c2c(F)cccc2F)c2c(sc3c2CCCCC3)-n2c(C3CC3)nnc21"
test_readout = "Efficacy (GABA) %"
output_unit = "%"
experimental_result = 91

[[record]]
compound = "C[C@@H]1N=C(c2c(F)cccc2F)c2c(sc3c2COCCO3)-n2c(C(F)F)nnc21"
test_readout = "Efficacy (GABA) %"
output_unit = "%"
experimental_result = 144

[[record]]
compound = "Cc1nnc2n1-c1sc3c(c1C(c1c(F)cccc1F)=N[C@H]2C)COCCC3"
test_readout = "Efficacy (GABA) %"
output_unit = "%"
experimental_result = 170

[[record]]
compound = "C[C@@H]1N=C(c2c(F)cccc2F)c2c(sc3c2COC[C@H](C)O3)-n2nc(C(=O)NCCO)nc21"
test_readout = "Efficacy (GABA) %"
output_unit = "%"
experimental_result = 237

[[record]]
compound = "Cc1nnc2n1-c1sc3c(c1C(c1c(F)cccc1F)=N[C@H]2C)CCC(F)C(F)C3 (single isomer, unassigned)"
test_readout = "Efficacy (GABA) %"
output_unit = "%"
experimental_result = 134


* * *

TARGET_OR_TEST_SYSTEM: human GABAA α1β2γ1 receptor (Homo sapiens (Human), UniProt P14867+Q8N1C3)
MEASUREMENT_DESCRIPTION: Radioligand binding assay, competition for [3H]RO7239181, γ1-containing GABAA subtypes
RUN_PARAMETERS: Ki h-GABAA α1β2γ1, membranes of HEK293F cells, [3H]RO7239181 20-30 nM, Table 1
Reported Ki values for a set of molecules
TEST_READOUT: Ki

[[record]]
molecule = "C[C@@H]1N=C(c2c(F)cccc2F)c2c(sc3c2COCCO3)-n2nc(C(=O)NC[C@](C)(O)C(F)(F)F)nc21"
test_readout = "Ki"
experimental_result = "93.4 nM"

[[record]]
molecule = "Cc1nnc2n1-c1sc3c(c1C(c1c(F)cccc1F)=N[C@H]2C)COCCC3"
test_readout = "Ki"
experimental_result = "75.3 nM"

[[record]]
molecule = "Cc1nnc2n1-c1sc3c(c1C(c1c(F)cccc1Cl)=N[C@H]2C)COCCC3"
test_readout = "Ki"
experimental_result = "49.1 nM"

[[record]]
molecule = "Cc1nnc2n1-c1sc3c(c1C(c1c(F)cccc1F)=N[C@H]2C)COC[C@H](C)O3"
test_readout = "Ki"
experimental_result = "205 nM"

[[record]]
molecule = "Cc1nnc2n1-c1sc3c(c1C(c1c(F)cccc1F)=NC2)CCCCO3"
test_readout = "Ki"
experimental_result = "55.1 nM"

[[record]]
molecule = "Cc1nnc2n1-c1sc3c(c1C(c1c(F)cccc1F)=N[C@H]2C)CCC(F)C(F)C3 (single isomer, unassigned)"
test_readout = "Ki"
experimental_result = "103 nM"

[[record]]
molecule = "Cc1nnc2n1-c1sc3c(c1C(c1c(F)cccc1F)=N[C@H]2C)CCCC[C@@H]3F (single isomer, unassigned)"
test_readout = "Ki"
experimental_result = "45.7 nM"


* * *

Reported pKi values for a set of molecules
TARGET_OR_TEST_SYSTEM: human GABAA α2β2γ1 receptor (Homo sapiens (Human), UniProt P47869+Q8N1C3)
MEASUREMENT_DESCRIPTION: Radioligand binding assay, competition for [3H]RO7239181, γ1-containing GABAA subtypes
RUN_PARAMETERS: Ki h-GABAA α2β2γ1, membranes of HEK293F cells, [3H]RO7239181 20-30 nM, Table 1
pKi: −log10 of the molar value.
TEST_READOUT: pKi

[[record]]
molecule = "Cc1nnc2n1-c1sc3c(c1C(c1c(F)cccc1F)=NC2)CCCCO3 [Example 18]"
experimental_result = 7.68

[[record]]
molecule = "C[C@@H]1N=C(c2c(F)cccc2F)c2c(sc3c2COCCC3)-n2cc(C(=O)NCCO)nc21 [Example 66]"
experimental_result = 7.83

[[record]]
molecule = "Cc1nnc2n1-c1sc3c(c1C(c1c(F)cccc1F)=N[C@H]2C)COCCO3 [Example 21]"
experimental_result = 7.69

[[record]]
molecule = "C[C@@H]1N=C(c2c(F)cccc2F)c2c(sc3c2COC[C@H](C)O3)-n2nc(C(=O)N3CC(F)C3)nc21 [Example 40]"
experimental_result = 7.69


* * *

TARGET_OR_TEST_SYSTEM: human GABAA α5β2γ1 receptor (Homo sapiens (Human), UniProt P31644+Q8N1C3)
MEASUREMENT_DESCRIPTION: Radioligand binding assay, competition for [3H]RO7239181, γ1-containing GABAA subtypes
Mark 1 only for Ki values smaller than 3 nM; exact matches and larger values are 0.

[[record]]
compound = "Cc1nnc2n1-c1sc3c(c1C(c1c(F)cccc1F)=NC2)CCOCC3"
target_or_test_system = "human GABAA α5β2γ1 receptor (Homo sapiens (Human), UniProt P31644+Q8N1C3)"
category_label = 0

[[record]]
compound = "CCNC(=O)c1nc2n(n1)-c1sc3c(c1C(c1c(F)cccc1F)=N[C@H]2C)COCCO3"
target_or_test_system = "human GABAA α5β2γ1 receptor (Homo sapiens (Human), UniProt P31644+Q8N1C3)"
category_label = 0

[[record]]
compound = "Cc1nnc2n1-c1sc3c(c1C(c1c(F)cccc1F)=N[C@H]2C)CCCC[C@@H]3F (single isomer, unassigned)"
target_or_test_system = "human GABAA α5β2γ1 receptor (Homo sapiens (Human), UniProt P31644+Q8N1C3)"
category_label = 1

[[record]]
compound = "Cc1nc2n(n1)-c1sc3c(c1C(c1c(F)cccc1F)=N[C@H]2C)COCCC3"
target_or_test_system = "human GABAA α5β2γ1 receptor (Homo sapiens (Human), UniProt P31644+Q8N1C3)"
category_label = 1

[[record]]
compound = "Cc1nnc2n1-c1sc3c(c1C(c1c(F)cccc1F)=N[C@H]2C)CC[C@@H](F)CO3"
target_or_test_system = "human GABAA α5β2γ1 receptor (Homo sapiens (Human), UniProt P31644+Q8N1C3)"
category_label = 0

[[record]]
compound = "Cc1nnc2n1-c1sc3c(c1C(c1c(F)cccc1F)=N[C@H]2C)CCCCC3"
target_or_test_system = "human GABAA α5β2γ1 receptor (Homo sapiens (Human), UniProt P31644+Q8N1C3)"
category_label = 1

[[record]]
compound = "Cc1nc2n(n1)-c1sc3c(c1C(c1c(F)cccc1F)=N[C@H]2C)CCCCC3"
target_or_test_system = "human GABAA α5β2γ1 receptor (Homo sapiens (Human), UniProt P31644+Q8N1C3)"
category_label = 1

[[record]]
compound = "Cc1nnc2n1-c1sc3c(c1C(c1c(F)cccc1F)=N[C@H]2C)OCCCC3"
target_or_test_system = "human GABAA α5β2γ1 receptor (Homo sapiens (Human), UniProt P31644+Q8N1C3)"
category_label = 0

[[record]]
compound = "Cc1cn2c(nc1=O)[C@H](C)N=C(c1c(F)cccc1F)c1c-2sc2c1CCCCC2"
target_or_test_system = "human GABAA α5β2γ1 receptor (Homo sapiens (Human), UniProt P31644+Q8N1C3)"
category_label = 0

[[record]]
compound = "Cc1nc2n(n1)-c1sc3c(c1C(c1c(F)cccc1F)=N[C@H]2C)COC[C@H](C)O3"
target_or_test_system = "human GABAA α5β2γ1 receptor (Homo sapiens (Human), UniProt P31644+Q8N1C3)"
category_label = 0

[[record]]
compound = "C[C@@H]1N=C(c2c(F)cccc2F)c2c(sc3c2COCCO3)-n2nc(C(=O)NCCF)nc21"
target_or_test_system = "human GABAA α5β2γ1 receptor (Homo sapiens (Human), UniProt P31644+Q8N1C3)"
category_label = 1


These data points were gathered from patent US20240294543A1.
